molecular target: L858R/T790M/C797S EGFR (Homo sapiens, UniProt P00533, C797S/L858R/T790M); construct: expressed in transfected cells; host or cells: H1975 clone #25 (lentiviral over-expression, endogenous EGFR knocked out by sgRNA); assay: EGFR degradation HTRF assay in H1975-clone #25 (LTC) cells; type: cell-based; settings: NCI-H1975, H1975 # 25-LTC (L858R/T790M/C797S), 16h treatment, maximum percentage of degradation
Sequence (P00533 25-1210 T790M/C797S/L858R): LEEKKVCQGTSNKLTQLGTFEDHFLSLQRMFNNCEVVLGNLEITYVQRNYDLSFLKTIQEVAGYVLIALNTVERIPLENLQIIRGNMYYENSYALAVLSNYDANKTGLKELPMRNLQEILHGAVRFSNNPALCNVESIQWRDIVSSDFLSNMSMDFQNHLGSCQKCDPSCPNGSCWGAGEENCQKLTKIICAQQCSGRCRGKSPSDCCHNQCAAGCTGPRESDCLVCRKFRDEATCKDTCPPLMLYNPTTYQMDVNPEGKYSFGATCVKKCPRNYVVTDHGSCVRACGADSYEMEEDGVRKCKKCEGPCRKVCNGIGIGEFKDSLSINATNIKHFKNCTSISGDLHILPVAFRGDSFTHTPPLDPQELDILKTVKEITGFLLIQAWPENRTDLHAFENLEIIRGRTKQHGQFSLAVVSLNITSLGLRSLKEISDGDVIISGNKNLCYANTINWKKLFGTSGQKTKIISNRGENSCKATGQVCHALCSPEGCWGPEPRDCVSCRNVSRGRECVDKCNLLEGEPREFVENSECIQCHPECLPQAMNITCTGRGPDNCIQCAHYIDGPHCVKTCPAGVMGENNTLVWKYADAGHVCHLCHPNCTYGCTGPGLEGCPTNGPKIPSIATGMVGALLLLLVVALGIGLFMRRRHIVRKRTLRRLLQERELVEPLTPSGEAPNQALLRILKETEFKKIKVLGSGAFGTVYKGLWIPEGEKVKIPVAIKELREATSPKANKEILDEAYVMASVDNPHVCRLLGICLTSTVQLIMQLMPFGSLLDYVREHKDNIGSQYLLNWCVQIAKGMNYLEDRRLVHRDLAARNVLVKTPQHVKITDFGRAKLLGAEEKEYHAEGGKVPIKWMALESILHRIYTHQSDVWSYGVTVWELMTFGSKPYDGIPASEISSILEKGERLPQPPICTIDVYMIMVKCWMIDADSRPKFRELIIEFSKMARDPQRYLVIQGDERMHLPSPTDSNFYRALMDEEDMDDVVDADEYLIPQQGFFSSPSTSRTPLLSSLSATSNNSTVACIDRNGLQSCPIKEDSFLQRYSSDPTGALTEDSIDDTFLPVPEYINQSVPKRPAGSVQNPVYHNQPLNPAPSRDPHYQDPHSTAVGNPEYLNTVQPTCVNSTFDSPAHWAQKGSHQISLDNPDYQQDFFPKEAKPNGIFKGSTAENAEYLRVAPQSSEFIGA
experimentalReadout: Dmax (%)

compound	target	readingUnit	Dmax
Cc1cc2cc(n1)-c1cnn(C)c1OCCC1CC1CN1/C(=N/C2=O)Nc2ccc(C(=O)N(C)C3CCN(CCc4cc(F)c([C@H]5CCC(=O)NC5=O)c(F)c4)CC3)cc21 (some centres unmarked) [Example 234]	L858R/T790M/C797S EGFR (Homo sapiens, UniProt P00533, C797S/L858R/T790M)	%	90.1
Cc1cc2cc(n1)-c1cnn(C)c1OCCC[C@@H](C)CN1/C(=N/C2=O)Nc2ccc(C(=O)N(C)[C@H]3CCN(CCc4cc(F)c([C@H]5CCC(=O)NC5=O)c(F)c4)[C@H](C)C3)cc21 [Example 259]	L858R/T790M/C797S EGFR (Homo sapiens, UniProt P00533, C797S/L858R/T790M)	%	89.2
Cc1cc2cc(n1)-c1cnn(C)c1OCCC[C@@H](C)CN1/C(=N/C2=O)Nc2ccc(N(C)C3CN(C4CCN(c5cc(F)c([C@H]6CCC(=O)NC6=O)c(F)c5)CC4)C3)cc21 [Example 438]	L858R/T790M/C797S EGFR (Homo sapiens, UniProt P00533, C797S/L858R/T790M)	%	85.6
Cc1cc2cc(n1)-c1cnn(C3CC3)c1OCCC[C@@H](C)CN1/C(=N/C2=O)Nc2ccc(CN3CCN(C(=O)[C@H]4CN(c5cc(F)c([C@H]6CCC(=O)NC6=O)c(F)c5)CC4(C)C)CC3)cc21 [Example 165]	L858R/T790M/C797S EGFR (Homo sapiens, UniProt P00533, C797S/L858R/T790M)	%	79.9
Cc1cc2cc(n1)-c1cnn(C)c1OCCC[C@@H](C)CN1/C(=N/C2=O)Nc2ccc(N3CCC(NC4CCN(c5cc(F)c([C@H]6CCC(=O)NC6=O)c(F)c5)CC4)CC3)cc21 [Example 401]	L858R/T790M/C797S EGFR (Homo sapiens, UniProt P00533, C797S/L858R/T790M)	%	81.1
